Cited source: ChEMBL document CHEMBL4393657

I'd be grateful if you could share measured MIC for these entries.
- Tested on: Candida albicans
- assay-overview: Antifungal activity against Candida albicans assessed as reduction in fungal cell growth incubated for 48 hrs by broth microdilution method
- Type: functional

// query MIC value for entry "C[C@H](n1nnc(CCN2CCN(C(c3ccccc3)c3ccccc3)CC2)n1)[C@](O)(Cn1cncn1)c1ccc(F)cc1F" 0.25 to 16 µg/mL

// query MIC value for entry O=[N+]([O-])c1ccc(N2CCN(CCc3nnn(CC(O)(Cn4cncn4)c4ccc(F)cc4F)n3)CC2)cc1 (stereo not given) 1 to 16 µg/mL

// query MIC value for entry CC(n1nnc(CCN2CCN(Cc3ccccc3)CC2)n1)C(O)(Cn1cncn1)c1ccc(F)cc1F (stereo not given) 1 to 16 µg/mL

// query MIC value for entry CCCCOc1ccccc1N1CCN(CCc2nnn(CC(O)(Cn3cncn3)c3ccc(F)cc3F)n2)CC1 (stereo not given) 1 to 16 µg/mL

// query MIC value for entry "COc1ccc(N2CCN(CCc3nnnn3[C@@H](C)[C@](O)(Cn3cncn3)c3ccc(F)cc3F)CC2)cc1" 0.12 to 16 µg/mL

// query MIC value for entry CCCCOc1ccccc1N1CCN(CCc2nnnn2CC(O)(Cn2cncn2)c2ccc(F)cc2F)CC1 (stereo not given) 0.5 to 16 µg/mL

// query MIC value for entry Fc1ccc(C2c3ccc4ccccc4c3Oc3[nH]c(=S)n4nnnc4c32)cc1 (stereo not given) 50 to 400 µg/mL

// query MIC value for entry OC(Cn1cncn1)(Cn1nnnc1CCN1CCN(c2ccccn2)CC1)c1ccc(F)cc1F (stereo not given) 0.5 to 16 µg/mL

// query MIC value for entry OC(Cn1cncn1)(Cn1nnc(CCN2CCN(c3ccccn3)CC2)n1)c1ccc(F)cc1F (stereo not given) 1 to 16 µg/mL

// query MIC value for entry COc1ccc(C2c3ccc4ccccc4c3Oc3[nH]c(=S)n4nnnc4c32)cc1 (stereo not given) 50 to 400 µg/mL

// query MIC value for entry OC(Cn1cncn1)(Cn1nnc(CCN2CCN(c3cccc(C(F)(F)F)c3)CC2)n1)c1ccc(F)cc1F (stereo not given) 1 to 16 µg/mL

// query MIC value for entry O=[N+]([O-])c1ccc(N2CCN(CCc3nnnn3CC(O)(Cn3cncn3)c3ccc(F)cc3F)CC2)cc1 (stereo not given) 0.5 to 16 µg/mL

// query MIC value for entry COc1ccc(N2CCN(CCc3nnnn3CC(O)(Cn3cncn3)c3ccc(F)cc3F)CC2)cc1 (stereo not given) 0.5 to 16 µg/mL

// query MIC value for entry OC(Cn1cncn1)(Cn1nnnc1CCN1CCN(c2c(Cl)cccc2Cl)CC1)c1ccc(F)cc1F (stereo not given) 0.5 to 16 µg/mL

// query MIC value for entry CC(n1nnnc1CCN1CCN(c2ccc(F)cc2)CC1)C(O)(Cn1cncn1)c1ccc(F)cc1F (stereo not given) 0.5 to 16 µg/mL
